system-name: NA of influenza virus A/PR/8/34 (Influenza A virus, UniProt P03468)
Sequence (P03468 whole entry, looked up): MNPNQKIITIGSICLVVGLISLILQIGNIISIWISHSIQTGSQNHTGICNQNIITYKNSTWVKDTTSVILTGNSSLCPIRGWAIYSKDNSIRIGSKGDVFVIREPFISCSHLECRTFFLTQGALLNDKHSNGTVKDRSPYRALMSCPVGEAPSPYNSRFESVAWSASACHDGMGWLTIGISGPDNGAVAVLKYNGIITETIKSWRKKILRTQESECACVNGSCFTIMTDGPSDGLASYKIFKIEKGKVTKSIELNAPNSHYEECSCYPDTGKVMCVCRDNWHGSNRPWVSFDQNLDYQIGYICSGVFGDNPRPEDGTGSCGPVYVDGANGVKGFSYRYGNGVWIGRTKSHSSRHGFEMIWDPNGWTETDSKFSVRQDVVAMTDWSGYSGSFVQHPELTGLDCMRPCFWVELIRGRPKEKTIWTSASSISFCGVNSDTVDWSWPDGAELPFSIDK
test-description: biochemical
Parameters: species or system H1N1 influenza virus A/Puerto Rico/8/34
condition: IC50 for A/PR/8/34
Provide the recorded IC50 for the entries that follow.
# output: bare number, implied unit nM

*Q* Param readout = IC50; param system = NA of influenza virus A/PR/8/34 (Influenza A virus, UniProt P03468); param query = Cc1ccc(S(=O)(=O)Oc2cc(S(=O)(=O)O)cc3cc(S(=O)(=O)O)cc(N)c23)cc1 [NCI compound 16168] ; response: value
*A* 5910

*Q* // fetch NA of influenza virus A/PR/8/34 (Influenza A virus, UniProt P03468) IC50 for O=C(O)c1cc2ccccc2c(N=Nc2ccc(S(=O)(=O)Nc3ccccn3)cc2)c1O [NCI compound 134134]
*A* 450

*Q* Query for NA of influenza virus A/PR/8/34 (Influenza A virus, UniProt P03468): what IC50 does the record show for O=S(=O)(O)c1cc2cccc(S(=O)(=O)O)c2c(O)c1N=Nc1ccccc1 [NCI compound 45549] ?
*A* 4850

*Q* For NA of influenza virus A/PR/8/34 (Influenza A virus, UniProt P03468), provide IC50 of Cc1cc(S(=O)(=O)O)ccc1N=Nc1ccc(N=Nc2c(O)ccc3ccccc23)c(C)c1 [NCI compound 66221] please.
*A* 290

*Q* Short answer please: IC50, NA of influenza virus A/PR/8/34 (Influenza A virus, UniProt P03468), entry CCOc1ccc(N=Nc2ccc(C=Nc3ccc4c(O)cc(S(=O)(=O)O)cc4c3)cc2)cc1 [NCI compound 37220]
*A* 420
